assay: in vivo; conditions: rat, plasma, po, 10 mg/kg
Description: Plasma concentration in rat at 10 mg/kg, po after 2 hrs
Measure name: concentration at 2 h (nM)
All answers are understood in nM, so give the number only.

>  <Smiles record>
O=C1O[C@]2(CC[C@H](C(=O)Nc3cc(-c4ccccc4)[nH]n3)CC2)c2cnccc21

>  <concentration at 2 h / nM>
6100

$$$$
>  <Smiles record>
O=C1O[C@]2(CC[C@H](C(=O)Nc3ccn(-c4ccccc4)n3)CC2)c2cnccc21

>  <concentration at 2 h / nM>
2940

$$$$
>  <Smiles record>
O=C1O[C@]2(CC[C@H](C(=O)Nc3ccn(-c4cccc(F)c4)n3)CC2)c2cnccc21

>  <concentration at 2 h / nM>
1090

$$$$
>  <Smiles record>
O=C1O[C@]2(CC[C@H](C(=O)Nc3cnn(-c4ccccc4)c3)CC2)c2cnccc21

>  <concentration at 2 h / nM>
1520

$$$$

Reported concentration at 2 h of O=C1O[C@]2(CC[C@H](C(=O)Nc3cnn(-c4ccccc4)n3)CC2)c2cnccc21 : 680

concentration at 2 h for O=C1O[C@]2(CC[C@H](C(=O)Nc3ccn(-c4ccc(F)cc4)n3)CC2)c2cnccc21 is 890

Entry O=C1O[C@]2(CC[C@H](C(=O)Nc3ccc(-c4ccccc4)cn3)CC2)c2cnccc21 ; concentration at 2 h = 20

Briefly, concentration at 2 h measured for O=C1O[C@]2(CC[C@H](C(=O)Nc3csc(-c4ccccc4)n3)CC2)c2cnccc21 : 190

###

assay: in vivo; conditions: rat, CSF, po, 10 mg/kg
Description: Drug level in rat CSF at 10 mg/kg, po after 2 hrs
// reported concentration at 2 h for each item listed
Quick note: give the figure in µM, leave out the unit.

Observe how each entry below is paired with its result.
>  <Compound>
O=C1O[C@]2(CC[C@H](C(=O)Nc3cc(-c4ccccc4)[nH]n3)CC2)c2cnccc21

>  <Measure name>
concentration at 2 h

>  <Unit of measurement>
µM

>  <Result value>
0.059

$$$$
>  <Compound>
O=C1O[C@]2(CC[C@H](C(=O)Nc3cnn(-c4ccccc4)c3)CC2)c2cnccc21

>  <Measure name>
concentration at 2 h

>  <Unit of measurement>
µM

>  <Result value>
0.045

$$$$
>  <Compound>
O=C1O[C@]2(CC[C@H](C(=O)Nc3ccn(-c4ccccc4)n3)CC2)c2cnccc21

>  <Measure name>
concentration at 2 h

>  <Unit of measurement>
µM

>  <Result value>
0.276

$$$$

# concentration at 2 h (compound: O=C1O[C@]2(CC[C@H](C(=O)Nc3cnn(-c4ccccc4)n3)CC2)c2cnccc21 ) is 0.042

Lab note: O=C1O[C@]2(CC[C@H](C(=O)Nc3cnc(-c4ccccc4)cn3)CC2)c2cccnc21 gave concentration at 2 h of 0.174

// recorded concentration at 2 h for O=C1O[C@]2(CC[C@H](C(=O)Nc3ccn(-c4ccc(F)cc4)n3)CC2)c2cnccc21 : 0.081

Memo: O=C1O[C@]2(CC[C@H](C(=O)Nc3ccn(-c4cccc(F)c4)n3)CC2)c2cnccc21 , reported concentration at 2 h: 0.077

concentration at 2 h measured on O=C1O[C@]2(CC[C@H](C(=O)Nc3ccn(-c4ccccc4)n3)CC2)c2cccnc21 = 0.416

Sure, the documented concentration at 2 h for O=C1O[C@]2(CC[C@H](C(=O)Nc3ccn(-c4ccccc4F)n3)CC2)c2cnccc21 [MK-0557] is 0.152

So for O=C1O[C@]2(CC[C@H](C(=O)Nc3cnn(-c4ccccc4)c3)CC2)c2cccnc21 , the logged concentration at 2 h turned out to be 0.091

Data provenance is ChEMBL document CHEMBL1152582.
